experiment: yeast display, Sf9 membrane polyspecificity reagent, FACS + sequencing; frameworks hold sequencing errors
READOUT_NAME: polyreactivity (PSR sort gate)

PRIMARY_SEQUENCE	READOUT_NAME	VALUE_OBSERVED
QVQLVESGGGLVQAGGSLRLSCAASGSTFDYYTMGWYRQAPGKERELVAAISSSGGSTYYADSVKGRFTISRDNAKNTVYLQMNSLKPEDTAVYYCAADPSPYGDEYDYWGQGTQVTVSS	polyreactivity (PSR sort gate)	low polyreactivity
QVHLVESVGGLVQAGGSLRISCAASGRIFSKYAMGWYRQAPGKDRELVGAITSSTKYADSVKGRFTISRDNAKNTVYLQMHSLKPEDTAVYSCNAEFVWHTYYGADFKMDYWGQGTQVTVSS	polyreactivity (PSR sort gate)	high polyreactivity
QVQIVESGGGLVQAGGSLRLSCAPSGSTFGSNAMGWYRQAPGKERELVAAIRWSGGSTYYADSVKGRFTISRDNAKNTVYLQMNSLKPEDTAVYYCNAVYGRQYRGYNYKYYYWGQGTQVTVSS	polyreactivity (PSR sort gate)	high polyreactivity
QVQLVESGGGLVQAGGSLRLSCAASGSIFYANTMGWYRQAPGKEREFVAAITWSGGSTYYADSVKGRFTISRDNAKNTVYLQMNSLKPEDTAVYYCAAEEQRYWYEYYYWGQGTQVTVSS	polyreactivity (PSR sort gate)	high polyreactivity
QVQLVESGGGLVQAGGSLRLSCAASGYTFWDYTMGWYRQAPGKEREFVAAINWSGGSTYYADSVKGRFTISRDNAKKTVYLQMNSLKPEDTAVYYCAARRGGRRGYDYWGQGTQVTVSS	polyreactivity (PSR sort gate)	high polyreactivity

I'm hoping you can list polyreactivity (PSR sort gate) for every sequence here, please.
1. QVQLVESGGGLVQAGGSLRLTCAASGFIIKFYDMGWYRQAPGKERELVATITFSSGTTYYADSVKGRFTISRDNAKNTVYLQMNSLKPEDTAVYYCAAYTLPAWPYDGPAGPRYDYWGQGTQVTVSS
2. QVQLVESGGGLVQAGGSLRLSCAASGSTFSSNAMGWYRQAPGKERELVAAITGSGGSTYYADSVKGRFTISRDNAKNTVYLQMNSLKPEDTAVYYCAAKWYGITYKYEYWGQGTQVTVSS
3. QVQRVESGGGLVQAGASLRLSCAASGGIFYRNAMLWYRQAPGKERELVAAISRRAGSTYYADSVKGRFTISRDNAKNTVYLQMNSLKPEDTAVYYCARRVVNVGDADREYWGQGTQVTVSS
4. QVQLVESGGGLVQAGGSLRLSCAASGSIFFDYAMGWYRQAPGKETELVAAMSSTGGSTYYADSVKGRFTISRDNSKNTVYLQMNSLIPEDTAVYYCNARYYSYSSPYDYWGEGTQVTVSS
5. QVQLVESGGGLVQAGGSLRLSCAASGRIFYGNAMGWYRQAPGKERELVAAISSGTTTNYADSVKGRFTISRDNAKNTVYLQMNSLKPEDTAVYYCAAGSYSRYLYSLYFDFDYWGQGTQVTVSS
6. QVQLVDSGGGLVQAGGSLRLRSAASGFTFCTYDMGWYRQAPGKERELVAAIDSGGSTYYADSVKGRFTISRDNAKNNVYLQMNSLKPEDTAVYYCNKVVDYFWYVEYDYWGQVTQVTVSS

["low polyreactivity", "high polyreactivity", "high polyreactivity", "high polyreactivity", "low polyreactivity", "low polyreactivity"]

Report polyreactivity (PSR sort gate) for every entry below.
1. QVQLQESGGGLVQAGGSLRLSCAASGSIFKVVDMGLYRQAPAKEREFVATIGEGGNTYYADSVKGRFTISRDNAKNTVYLQMNSLKTEDTAVYFYAVVLGTSYRYTYWGQGTKVTVSS
2. QVQLVESGGGLVQAGGSLRLSCAASGRTFGYYAMGWYRQAPGKERELVAAITLSGGSTYYADSVKGRFTISRDNAKNTVYLQMNSLKPEDTAVYYCAAKWWHFYPYDYWGQGTQVTVSS

low polyreactivity
high polyreactivity

Where do these numbers come from? They come from the nanobody polyreactivity screen of Harvey et al. (2022).
